Assay method text: CREB reporter modulators under forskolin, primary screen, cell-based, PC12, CRE-LacZ reporter, forskolin-stimulated (AID 1146);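 also: PC12 cells with 6xCRE LacZ reporter stimulated by forskolin 10 µM; beta-galactosidase reporter signal reflecting CREB driven transcription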
Condition parameters: luminescence, 4.5 h, higher = more signal, called active from +8 up or from −8 down
Kindly return yes if reported z-score is no lower than -0.2; return no if it is lower.

// below: answered molecules
molecule=COc1ccc(COC(=O)NN=C2C[C@@H](O)[C@@H](O)[C@@H]3[C@@H]4C(=O)N([C@@H](C)c5ccccc5)C(=O)[C@@H]4CC[C@H]23)cc1 group_label=yes
molecule=CON=C(C)CCN1CCCc2nc(C)c(C)cc21 group_label=yes

Now look at this entry.
Decide: z-score of CCOC(=O)[C@H](Cc1ccccc1)NC(=O)CCC1CC(OC(=O)NCc2ccc3c(c2)OCO3)CC2(CCCC(COC(=O)NCCCN3CCCC3=O)O2)O1 (some centres undefined) >= -0.2?
no
